# Target entity: Glutaminase kidney isoform, mitochondrial (Homo sapiens)
# Sequence (O94925 whole entry, the tested form may be a part, canonical isoform): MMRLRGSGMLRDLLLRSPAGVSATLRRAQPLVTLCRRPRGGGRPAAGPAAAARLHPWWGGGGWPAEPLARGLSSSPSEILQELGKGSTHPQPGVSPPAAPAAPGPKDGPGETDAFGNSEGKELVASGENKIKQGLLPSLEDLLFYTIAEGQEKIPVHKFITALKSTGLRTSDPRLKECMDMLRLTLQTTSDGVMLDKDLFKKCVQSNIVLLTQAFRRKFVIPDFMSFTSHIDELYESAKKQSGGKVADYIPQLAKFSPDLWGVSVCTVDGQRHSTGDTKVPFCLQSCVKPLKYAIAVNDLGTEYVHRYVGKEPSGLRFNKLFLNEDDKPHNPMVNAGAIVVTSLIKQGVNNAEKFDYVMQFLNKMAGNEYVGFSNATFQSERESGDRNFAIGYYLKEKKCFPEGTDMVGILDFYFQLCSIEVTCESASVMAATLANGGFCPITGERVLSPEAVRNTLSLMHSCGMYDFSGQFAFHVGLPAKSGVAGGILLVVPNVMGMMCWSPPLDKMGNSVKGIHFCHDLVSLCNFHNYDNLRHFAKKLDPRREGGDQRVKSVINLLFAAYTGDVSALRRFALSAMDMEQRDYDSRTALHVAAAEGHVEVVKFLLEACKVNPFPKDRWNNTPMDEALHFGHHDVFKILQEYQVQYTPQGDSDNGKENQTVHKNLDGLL
# Protocol summary: Inhibition of human kidney type glutaminase (124 to 669 residues) using L-[3H]-glutamine as substrate after 45 mins by topcount method
pIC50: −log10 of the molar value.
Recorded endpoint: pIC50

O=C(Cc1ccc(O)cc1)Nc1nnc(CCCCc2nnc(NC(=O)Cc3cccc(OC(F)(F)F)c3)s2)s1 ... 6.29
Nc1ccc(CC(=O)Nc2nnc(CCCCc3nnc(NC(=O)Cc4ccccc4)s3)s2)cc1 ... 5.64
O=C(Cc1ccccc1)Nc1nnc(CCCCc2nnc(NC(=O)Cc3ccccn3)s2)s1 ... 7.15
CC(C)(C)OC(=O)Nc1ccc(CC(=O)Nc2nnc(CCCCc3nnc(NC(=O)Cc4ccccc4)s3)s2)cc1 ... 6.35
O=C(Cc1ccccc1)Nc1nnc(CCCCc2nnc(NC(=O)Cc3ccc(C(=O)O)cc3)s2)s1 ... 6.96
